Data origin: the RNAGym collection of RNA variant scans (doi:10.1073/pnas.2313332121)

B1: TPR 5TU (parent)
chain: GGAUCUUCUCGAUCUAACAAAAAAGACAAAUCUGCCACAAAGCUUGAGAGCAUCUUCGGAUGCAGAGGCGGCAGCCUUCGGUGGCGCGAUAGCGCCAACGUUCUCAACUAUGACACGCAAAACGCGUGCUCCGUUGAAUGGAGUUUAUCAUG

variants of: B1; assay: polymerase ribozyme fitness, log enrichment relative to wild type (log ratio); higher = more active; in vitro selection for triplet polymerase activity
Variants at the floor of the assay were thinned out.
VALUE TYPE: polymerase ribozyme fitness (log ratio)

INSERT INTO results (var, value_type, result) VALUES
  ('C10G U61A C93A U139A', 'polymerase ribozyme fitness (log ratio)', '≤ -4.2'),
  ('C96G U139G G140U C149A', 'polymerase ribozyme fitness (log ratio)', '≤ -4.2'),
  ('C5A C36U C79U A121G', 'polymerase ribozyme fitness (log ratio)', '≤ -4.2'),
  ('A39U U55G G58U U78G C85U U90C C105A G136U A142C', 'polymerase ribozyme fitness (log ratio)', '≤ -4.2'),
  ('U9C C54A C87G U134A', 'polymerase ribozyme fitness (log ratio)', '≤ -4.2'),
  ('A47G C85G U90C G124U', 'polymerase ribozyme fitness (log ratio)', '≤ -4.2'),
  ('U9G C85U G92U U145A', 'polymerase ribozyme fitness (log ratio)', '≤ -4.2'),
  ('C10A A47G A64G G81U G84U', 'polymerase ribozyme fitness (log ratio)', '≤ -4.2'),
  ('U56A G68C U77A C96G U104G C108U G141C', 'polymerase ribozyme fitness (log ratio)', '≤ -4.2'),
  ('A3C U6G A23U A39G U44A A89G C116G', 'polymerase ribozyme fitness (log ratio)', '≤ -4.2'),
  ('A26U A73U A91U C96G A137C', 'polymerase ribozyme fitness (log ratio)', '≤ -4.2'),
  ('A19G C27A C57A G92U A97G G133A U134G', 'polymerase ribozyme fitness (log ratio)', '≤ -4.2'),
  ('A20G G46A U55G G70A C76U G84A C96U C103G C114U G152U', 'polymerase ribozyme fitness (log ratio)', '≤ -4.2'),
  ('U7A C18A U33G A66U G84A G100A G124C', 'polymerase ribozyme fitness (log ratio)', '≤ -4.2'),
  ('C14U A16U C27A A30G G42U C51U C93A', 'polymerase ribozyme fitness (log ratio)', '≤ -4.2'),
  ('U6A G50C C57A G83U C87A G94A', 'polymerase ribozyme fitness (log ratio)', '≤ -4.2'),
  ('G65A G136C A147C', 'polymerase ribozyme fitness (log ratio)', -4.13),
  ('U102C C131U U134G', 'polymerase ribozyme fitness (log ratio)', -4.13),
  ('C51G C85G C125U A137C', 'polymerase ribozyme fitness (log ratio)', '≤ -4.2'),
  ('U56G A73G U101C A119G U148C', 'polymerase ribozyme fitness (log ratio)', -4.08),
  ('G58U A60G', 'polymerase ribozyme fitness (log ratio)', 0.208),
  ('C85U C93U U134G', 'polymerase ribozyme fitness (log ratio)', -4.16),
  ('A121C A137U A147G', 'polymerase ribozyme fitness (log ratio)', '≤ -4.2'),
  ('A40U U55C U78G U151A', 'polymerase ribozyme fitness (log ratio)', '≤ -4.2'),
  ('C14A G59A U82A G84U', 'polymerase ribozyme fitness (log ratio)', -4.06),
  ('A29C A37U C108U', 'polymerase ribozyme fitness (log ratio)', -4.09),
  ('C5G A30C G81U A138C U144C', 'polymerase ribozyme fitness (log ratio)', '≤ -4.2'),
  ('G11A U55A A73G', 'polymerase ribozyme fitness (log ratio)', -1.2),
  ('C5G G48C U77A C85A G100A C103G C125A', 'polymerase ribozyme fitness (log ratio)', '≤ -4.2'),
  ('A49G U55G G88A U139C U145A', 'polymerase ribozyme fitness (log ratio)', '≤ -4.2'),
  ('C10A A66U G81A G94U U134A', 'polymerase ribozyme fitness (log ratio)', '≤ -4.2'),
  ('C93A U102A A137C', 'polymerase ribozyme fitness (log ratio)', '≤ -4.2'),
  ('G67A A89G G92C C93A C116U A122C U127C', 'polymerase ribozyme fitness (log ratio)', '≤ -4.2'),
  ('A91G G140A', 'polymerase ribozyme fitness (log ratio)', -4.12),
  ('A12U U55A G141A', 'polymerase ribozyme fitness (log ratio)', -1.32),
  ('C96U A122C', 'polymerase ribozyme fitness (log ratio)', -0.314),
  ('A28C A40U U53A G84U A115U', 'polymerase ribozyme fitness (log ratio)', '≤ -4.2'),
  ('U15G C129A', 'polymerase ribozyme fitness (log ratio)', -2.55),
  ('A21U G92A', 'polymerase ribozyme fitness (log ratio)', -2.72),
  ('G81A U144C', 'polymerase ribozyme fitness (log ratio)', -1.41),
  ('A28U U33G C43G A47C U55G U56A G84A C87G A106G A107C G133U G140U', 'polymerase ribozyme fitness (log ratio)', '≤ -4.2'),
  ('C96G C114A', 'polymerase ribozyme fitness (log ratio)', -4.19),
  ('C54U A60C C99U', 'polymerase ribozyme fitness (log ratio)', -3.17),
  ('A12C G46U A113U C118U', 'polymerase ribozyme fitness (log ratio)', -3.95),
  ('C85A A119U', 'polymerase ribozyme fitness (log ratio)', -2.98),
  ('A3C U31G A52C U56A U61G A91C C108G A113U', 'polymerase ribozyme fitness (log ratio)', '≤ -4.2'),
  ('A21U A23C C38A C99G A142C', 'polymerase ribozyme fitness (log ratio)', '≤ -4.2');
